Attribute: SILAC ratio Mrpl46
Target: AEA-DA lipid probe targets in Neuro2a cells (Mus musculus)
Conditions: competitor 25 μM

compound	experimentalSystem	SILAC ratio Mrpl46
CN1CCN(C(=O)c2c(-c3ccccc3)c3cc([N+](=O)[O-])ccc3n2C)CC1 [KML110]	AEA-DA lipid probe targets in Neuro2a cells (Mus musculus)	1.3
O=C(/C=C/c1cccnc1)NCCCCC1CCN(C(=O)c2ccccc2)CC1 [FK-866, reference compound]	AEA-DA lipid probe targets in Neuro2a cells (Mus musculus)	1.3
CN1CCN(C(=O)c2[nH]c3ccc([N+](=O)[O-])cc3c2-c2ccccc2)CC1 [MJN228]	AEA-DA lipid probe targets in Neuro2a cells (Mus musculus)	1.3
C=CCN(C)CCCCCCOc1ccc(C(=O)c2ccc(Br)cc2)c(F)c1 [Ro 48-8071, reference compound]	AEA-DA lipid probe targets in Neuro2a cells (Mus musculus)	0.9

###

Attribute: SILAC ratio Slc25a20
Target: AEA-DA lipid probe targets in Neuro2a cells (Mus musculus)
Sequence (Q9Z2Z6 1-301): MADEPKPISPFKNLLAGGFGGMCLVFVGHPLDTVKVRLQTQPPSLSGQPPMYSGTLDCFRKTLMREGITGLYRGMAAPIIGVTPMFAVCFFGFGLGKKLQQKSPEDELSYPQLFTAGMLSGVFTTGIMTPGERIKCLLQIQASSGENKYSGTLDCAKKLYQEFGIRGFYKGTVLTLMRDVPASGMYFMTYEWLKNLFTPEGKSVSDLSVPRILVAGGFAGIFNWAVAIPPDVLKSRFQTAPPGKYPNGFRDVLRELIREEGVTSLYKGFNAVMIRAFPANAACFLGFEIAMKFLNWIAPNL
Conditions: competitor 25 μM

compound	SILAC ratio Slc25a20
CN1CCN(C(=O)c2[nH]c3ccc([N+](=O)[O-])cc3c2-c2ccccc2)CC1 [MJN228]	1.4
C=CCN(C)CCCCCCOc1ccc(C(=O)c2ccc(Br)cc2)c(F)c1 [Ro 48-8071, reference compound]	1.2
CN1CCN(C(=O)c2c(-c3ccccc3)c3cc([N+](=O)[O-])ccc3n2C)CC1 [KML110]	1.5
O=C(/C=C/c1cccnc1)NCCCCC1CCN(C(=O)c2ccccc2)CC1 [FK-866, reference compound]	1.4

###

Attribute: SILAC ratio Letm1
Target: AEA-DA lipid probe targets in Neuro2a cells (Mus musculus, UniProt Q9Z2I0)
Sequence (Q9Z2I0 115-738): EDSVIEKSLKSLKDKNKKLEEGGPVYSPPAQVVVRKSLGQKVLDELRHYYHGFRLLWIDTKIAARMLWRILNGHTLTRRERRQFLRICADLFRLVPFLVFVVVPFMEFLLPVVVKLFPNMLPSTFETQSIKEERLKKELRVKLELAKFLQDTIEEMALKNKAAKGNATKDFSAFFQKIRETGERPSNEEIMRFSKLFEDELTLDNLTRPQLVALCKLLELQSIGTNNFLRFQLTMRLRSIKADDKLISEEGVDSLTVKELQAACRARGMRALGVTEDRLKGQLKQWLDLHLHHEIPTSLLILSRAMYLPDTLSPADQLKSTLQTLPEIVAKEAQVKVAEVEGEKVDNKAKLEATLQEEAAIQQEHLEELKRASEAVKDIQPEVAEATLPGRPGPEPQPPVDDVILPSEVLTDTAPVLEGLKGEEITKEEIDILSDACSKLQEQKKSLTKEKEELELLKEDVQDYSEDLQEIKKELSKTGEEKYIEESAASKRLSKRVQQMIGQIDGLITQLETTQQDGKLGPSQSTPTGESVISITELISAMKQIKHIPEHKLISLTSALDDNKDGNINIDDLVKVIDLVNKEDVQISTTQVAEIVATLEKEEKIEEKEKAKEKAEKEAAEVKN
Conditions: competitor 25 μM

molecule	SILAC ratio Letm1
CN1CCN(C(=O)c2c(-c3ccccc3)c3cc([N+](=O)[O-])ccc3n2C)CC1	1.1
CN1CCN(C(=O)c2[nH]c3ccc([N+](=O)[O-])cc3c2-c2ccccc2)CC1	1.5
O=C(/C=C/c1cccnc1)NCCCCC1CCN(C(=O)c2ccccc2)CC1 [FK-866, reference compound]	1.5
C=CCN(C)CCCCCCOc1ccc(C(=O)c2ccc(Br)cc2)c(F)c1 [Ro 48-8071, reference compound]	1.3

###

Attribute: SILAC ratio Myh9
Target: AEA-DA lipid probe targets in Neuro2a cells (Mus musculus)
Settings: competitor 25 μM

molecule	SILAC ratio Myh9
CN1CCN(C(=O)c2c(-c3ccccc3)c3cc([N+](=O)[O-])ccc3n2C)CC1	1.7
C=CCN(C)CCCCCCOc1ccc(C(=O)c2ccc(Br)cc2)c(F)c1 [Ro 48-8071, reference compound]	1.0
CN1CCN(C(=O)c2[nH]c3ccc([N+](=O)[O-])cc3c2-c2ccccc2)CC1	1.3
O=C(/C=C/c1cccnc1)NCCCCC1CCN(C(=O)c2ccccc2)CC1 [FK-866, reference compound]	1.2

###

Target: AEA-DA lipid probe targets in Neuro2a cells (Mus musculus)
Conditions: competitor 25 μM
experimentalEndpoint: SILAC ratio Scpep1

molecule	experimentalEndpoint	result
CN1CCN(C(=O)c2[nH]c3ccc([N+](=O)[O-])cc3c2-c2ccccc2)CC1	SILAC ratio Scpep1	1.4
CN1CCN(C(=O)c2c(-c3ccccc3)c3cc([N+](=O)[O-])ccc3n2C)CC1	SILAC ratio Scpep1	1.6
O=C(/C=C/c1cccnc1)NCCCCC1CCN(C(=O)c2ccccc2)CC1 [FK-866, reference compound]	SILAC ratio Scpep1	1.2
C=CCN(C)CCCCCCOc1ccc(C(=O)c2ccc(Br)cc2)c(F)c1 [Ro 48-8071, reference compound]	SILAC ratio Scpep1	0.4

###

Attribute: SILAC ratio, Rtn4
Biological target: AEA-DA lipid probe targets in Neuro2a cells (Mus musculus)
Conditions: competitor 25 μM
experimentalEndpoint: SILAC ratio, Rtn4

molecule	experimentalSystem	result
O=C(/C=C/c1cccnc1)NCCCCC1CCN(C(=O)c2ccccc2)CC1 [FK-866, reference compound]	AEA-DA lipid probe targets in Neuro2a cells (Mus musculus)	1.1
CN1CCN(C(=O)c2c(-c3ccccc3)c3cc([N+](=O)[O-])ccc3n2C)CC1 [KML110]	AEA-DA lipid probe targets in Neuro2a cells (Mus musculus)	1.4
C=CCN(C)CCCCCCOc1ccc(C(=O)c2ccc(Br)cc2)c(F)c1 [Ro 48-8071, reference compound]	AEA-DA lipid probe targets in Neuro2a cells (Mus musculus)	1.0
CN1CCN(C(=O)c2[nH]c3ccc([N+](=O)[O-])cc3c2-c2ccccc2)CC1 [MJN228]	AEA-DA lipid probe targets in Neuro2a cells (Mus musculus)	1.3

###

Target: AEA-DA lipid probe targets in Neuro2a cells (Mus musculus, UniProt O35114)
Sequence (O35114 1-478): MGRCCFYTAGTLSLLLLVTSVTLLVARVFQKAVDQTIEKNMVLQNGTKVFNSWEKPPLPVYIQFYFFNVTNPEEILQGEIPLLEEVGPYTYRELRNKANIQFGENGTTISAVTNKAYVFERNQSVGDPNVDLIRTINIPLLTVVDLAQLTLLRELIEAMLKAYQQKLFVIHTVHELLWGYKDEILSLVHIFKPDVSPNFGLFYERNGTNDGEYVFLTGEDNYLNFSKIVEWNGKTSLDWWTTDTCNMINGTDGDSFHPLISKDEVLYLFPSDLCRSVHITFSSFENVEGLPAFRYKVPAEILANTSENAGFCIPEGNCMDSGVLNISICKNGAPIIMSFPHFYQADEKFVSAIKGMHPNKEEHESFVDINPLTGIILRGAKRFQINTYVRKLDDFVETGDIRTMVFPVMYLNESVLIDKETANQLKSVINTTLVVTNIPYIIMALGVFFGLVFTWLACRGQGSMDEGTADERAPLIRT
Settings: competitor 25 μM
experimentalEndpoint: SILAC ratio Scarb2

compound	result
O=C(/C=C/c1cccnc1)NCCCCC1CCN(C(=O)c2ccccc2)CC1 [FK-866, reference compound]	1.1
CN1CCN(C(=O)c2[nH]c3ccc([N+](=O)[O-])cc3c2-c2ccccc2)CC1 [MJN228]	1.5
CN1CCN(C(=O)c2c(-c3ccccc3)c3cc([N+](=O)[O-])ccc3n2C)CC1 [KML110]	1.3
C=CCN(C)CCCCCCOc1ccc(C(=O)c2ccc(Br)cc2)c(F)c1 [Ro 48-8071, reference compound]	1.1

###

Biological target: human NUCB1 (Homo sapiens)
Construct: made in house; host or cells: Escherichia coli BL21(DE3)
Sequence (Q02818 27-461): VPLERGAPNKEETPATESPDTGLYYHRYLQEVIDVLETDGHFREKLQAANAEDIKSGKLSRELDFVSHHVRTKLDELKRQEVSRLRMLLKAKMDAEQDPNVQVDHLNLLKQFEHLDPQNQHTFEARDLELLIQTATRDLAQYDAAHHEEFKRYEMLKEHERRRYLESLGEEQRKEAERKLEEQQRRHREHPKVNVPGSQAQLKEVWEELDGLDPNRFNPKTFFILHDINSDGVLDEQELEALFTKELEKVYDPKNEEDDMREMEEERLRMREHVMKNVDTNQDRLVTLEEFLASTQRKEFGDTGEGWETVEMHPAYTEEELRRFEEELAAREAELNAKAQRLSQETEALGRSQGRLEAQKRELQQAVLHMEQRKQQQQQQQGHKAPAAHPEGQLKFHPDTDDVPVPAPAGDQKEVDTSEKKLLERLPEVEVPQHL
Test: FluoPol assay / high throughput screen with Fl-AEA and recombinant NUCB1
Assay type: binding
Conditions: competitor lipids, recombinant NUCB1
experimentalEndpoint: suppression of the NUCB1-FluoPol signal (blockade of Fl-AEA binding)

compound	experimentalSystem	result
CCCCC[C@H](O)/C=C/[C@@H]1[C@@H](C/C=C\CCCC(=O)NCCO)[C@@H](O)C[C@H]1O	human NUCB1 (Homo sapiens)	minimal blockade
CCCCC[C@H](O)/C=C/[C@H]1C(=O)C[C@H](O)[C@@H]1C/C=C\CCCC(=O)NCCO	human NUCB1 (Homo sapiens)	minimal blockade
CCCCC[C@H](O)/C=C/[C@H]1C=CC(=O)[C@@H]1CCCCCCC(=O)O	human NUCB1 (Homo sapiens)	minimal blockade
CC(C)CCC[C@@H](C)[C@H]1CC[C@H]2[C@@H]3CC=C4C[C@@H](O)CC[C@]4(C)[C@H]3CC[C@]12C	human NUCB1 (Homo sapiens)	minimal blockade
CCCCC[C@H](O)/C=C/C1=C(CCCCCCC(=O)O)C(=O)CC1	human NUCB1 (Homo sapiens)	minimal blockade
CCCCC[C@H](O)/C=C/[C@H]1C(=O)C[C@H](O)[C@@H]1C/C=C\CCCC(=O)O [prostaglandin D2]	human NUCB1 (Homo sapiens)	minimal blockade
CCCCCCCCCCCCC/C=C/[C@@H](O)[C@@H](N)CO	human NUCB1 (Homo sapiens)	minimal blockade

###

Target: AEA-DA lipid probe targets in Neuro2a cells (Mus musculus)
Settings: competitor 25 μM

compound	SILAC ratio, Hmox2
CN1CCN(C(=O)c2[nH]c3ccc([N+](=O)[O-])cc3c2-c2ccccc2)CC1 [MJN228]	1.4
O=C(/C=C/c1cccnc1)NCCCCC1CCN(C(=O)c2ccccc2)CC1 [FK-866, reference compound]	1.0
CN1CCN(C(=O)c2c(-c3ccccc3)c3cc([N+](=O)[O-])ccc3n2C)CC1 [KML110]	1.5
C=CCN(C)CCCCCCOc1ccc(C(=O)c2ccc(Br)cc2)c(F)c1 [Ro 48-8071, reference compound]	1.3
